# method: Fluorescence of control wells containing enzyme substrate in LB broth without spores
# Format: physicochemical
# condition_summary: pH 8 LB broth, substrate 0.3 mg/mL, 60° C., 10 seconds
Provide the reported mean fluorescence values detected for the control wells of each item.
Give bare numbers, in RFU.

Answered cases to consult:
| smiles_structure | value_measured |
| --- | --- |
| Cc1cc(=O)oc2cc(O[C@H]3O[C@H](CO)[C@@H](O)[C@H](O)[C@H]3O)cc(F)c12 | 616 |
| Cc1cc(=O)oc2cc(O[C@H]3O[C@H](CO)[C@@H](O)[C@H](O)[C@H]3O)ccc12 | 628 |

Next up:
query: Look up mean fluorescence values detected for the control wells: `Cc1cc(=O)oc2cc(O[C@H]3O[C@H](CO)[C@@H](O)[C@H](O)[C@H]3O)c(F)cc12`
result: 940
